- Assayed Target: T1, Avi/His-HuIL18BPa (recombinant human IL-18BP isoform A with Avi and poly-His tags) (human, biotinylated with BirA on the Avi tag in some assays)
- T1 construct: also called human IL-18BP-Avi-His
- T1 chain: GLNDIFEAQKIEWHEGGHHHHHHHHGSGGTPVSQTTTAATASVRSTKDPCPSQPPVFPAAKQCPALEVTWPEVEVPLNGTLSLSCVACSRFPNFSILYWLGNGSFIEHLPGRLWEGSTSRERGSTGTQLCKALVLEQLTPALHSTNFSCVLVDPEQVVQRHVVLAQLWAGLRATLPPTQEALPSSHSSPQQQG
- Method Description: SPR Biacore T200, IgG captured on Protein A/G
Please go through the items and note down their Kd.
Numbers only here, please. The scale is nM.

Given the binder anti-IL-18BP antibody variant BP-04.24 (antibody, V domains shown) VH: QVQLVQSGAEVKKPGASVKVSCKASGYTFTDYDMHWVRQAPGQGLEWMGIYSTYYGDVSYAQKFQGRVTMTRDKSTSTVYMELSSLRSEDTAVYYCARSGTYYYGTRESHPLDYWGQGTLVTVSS VL: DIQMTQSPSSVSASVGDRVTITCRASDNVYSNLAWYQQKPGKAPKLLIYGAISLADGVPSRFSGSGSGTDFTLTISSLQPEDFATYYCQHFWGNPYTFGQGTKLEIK , what is its reported Kd?
16

Entry anti-IL-18BP antibody variant BP-04.29 (antibody, V domains shown) VH: QVQLVQSGAEVKKPGASVKVSCKASGYTFTDYDMHWVRQAPGQGLEWMGIISTYYGDVSYAQKFQGRVTMTRDKSTSTVYMELSSLRSEDTAVYYCARSGTYNYGTRESHALDYWGQGTLVTVSS VL: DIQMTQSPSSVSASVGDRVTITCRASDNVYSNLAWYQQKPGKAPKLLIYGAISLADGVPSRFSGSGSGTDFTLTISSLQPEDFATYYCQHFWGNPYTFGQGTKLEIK : reported Kd = ?
16

Dear colleague, I am looking for the recorded Kd of the following binder: anti-IL-18BP antibody variant BP-04.03 (antibody, V domains shown) VH: QVQLVQSGAEVKKPGASVKVSCKASGYTFTDYDMHWVRQAPGQGLEWMGIISTYYGDVSYAQKFQGRVTMTRDKSTSTVYMELSSLRSENTAVYYCARSGTYYYGTREQHALDYWGQGTLVTVSS VL: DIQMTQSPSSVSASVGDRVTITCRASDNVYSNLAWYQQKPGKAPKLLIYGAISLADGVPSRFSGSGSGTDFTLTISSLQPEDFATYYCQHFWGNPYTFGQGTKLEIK
1.9
